Where these numbers come from: PubChem BioAssay (NCI)

- Test system: BT-549 breast
- PROCEDURE DETAILS: NCI tumour cell line growth inhibition, 48 h; in the data active = GI50 below about 0.43 µM; inactive = the rest
Mark one answer only. Choices: true (1) for active, false (0) for inactive

O=C1c2ccccc2-c2c1c1c(NCCCO)nc3ccccc3c1n2Cc1ccccc1: false (0)
COc1cccc2c(=O)c3c(sc12)c(NCCCNCCO)nc1ccccc13: false (0)
CC1c2ccccc2N=C2SC(=S)N3CCN=C3N21 (stereo not drawn): false (0)
O=C1/C(=C/c2ccc([N+](=O)[O-])cc2)COc2ccc(O)cc21: false (0)
CCNCCNc1cc(-c2ccc(C#N)cc2)c(C#N)c2nc3ccccc3n12: false (0)

Req: Which outcome did this test record for the molecule COc1cccc(COc2cc(-n3cnc4ccccc43)sc2C(N)=O)c1 ?
Resp: false (0)

Req: Now the same for COc1ccc(-n2nc(C)c3c(Nc4ccc(NC(=O)Nc5ccc(Cl)c(C(F)(F)F)c5)cc4)ncnc32)cc1
Resp: false (0)

###

- Test system: UACC-62 melanoma
- PROCEDURE DETAILS: NCI tumour cell line growth inhibition, 48 h
READOUT LABEL: TGI (µM)
Express the result in µM but write the number alone.

Here's what some known entries look like.
C=C1C(=O)C23C(O)CC4C5(C)CCCC4(C(O)OC5)C2C(OC(C)=O)CC1C3O (stereo not drawn): 19.8
O=C1c2ccccc2-c2c1c1c(NCCCO)nc3ccccc3c1n2Cc1ccccc1: 36.5
[2H]c1nc(=Nc2cc(NC(=O)C=C)c(N(C)CCN(C)C)cc2OC)[nH]c(-c2cn(C([2H])([2H])[2H])c3ccccc23)c1[2H]: 3.28

Req: For the compound shown here, CC1OC(c2ccc3c(c2O)C(=O)C2=C(C3=O)C3(O)C(=O)CC(C)(O)CC3(O)C=C2)CC(O)C1O (stereo not drawn) , give the reported TGI.
Resp: 30.4

###

We begin with a simple list: items and their reported GI50.
- Test system: MALME-3M melanoma
- PROCEDURE DETAILS: NCI tumour cell line growth inhibition, 48 h

C/C1=C\CC[C@@](C)(O)[C@@H]2C[C@H](CC/C(C)=C/CC1)C1(CC1)C(=O)O2: 21.6 µM
O=C1c2ccccc2-c2c1c1c(NCCCO)nc3ccccc3c1n2Cc1ccccc1: 19 µM
CC(C)[O-].CC(C)[O-].CN(CCN(C)Cc1cc(F)cc(F)c1[O-])Cc1cc(F)cc(F)c1[O-].[Ti+4]: 0.379 µM
COc1ccc(Nc2nccc(N3CCN(c4c5ccc(Cl)cc5nc5ccc(OC)cc45)CC3)n2)cc1: 92 µM
COc1ccc(C2=C(N3CCc4ccccc43)C(=O)NC2=O)cc1: > 25 µM

Okay, next one:
Req: For the compound shown here, CC(=Nc1ccc(S(N)(=O)=O)cc1)c1c(O)[nH]c2ccccc12 , give the reported GI50.
Resp: > 25 µM

###

- Test system: SF-539 CNS
- PROCEDURE DETAILS: NCI tumour cell line growth inhibition, 48 h
READOUT LABEL: TGI (µM)
Express the result in µM but write the number alone.

Here's what some known entries look like.
COc1ccc(C2c3cc4c(cc3OC(NCCO)C2C)OCO4)cc1 (stereo not given): 40.5
C(=C\c1ccccc1)/COc1ccccc1C(N1CCOCC1)n1nc2ccccc2n1 (stereo not given): 6.62

Req: For the compound shown here, CC(C)Oc1ccc(C(=O)Cn2ccnc2)cc1-n1c(CN2CCN(C(=O)COc3ccc(Cl)cc3)CC2)nc2ccccc2c1=O , give the reported TGI.
Resp: 30.4

###

- Tested on: SF-539 CNS
- PROCEDURE DETAILS: NCI tumour cell line growth inhibition, 48 h
We begin with a simple list: items and their reported TGI.

Here's what some known entries look like.
O=C(NN1C(=O)CSC1c1cccc(F)c1)c1ccncc1 (stereo not drawn): > 100 µM
Cc1ccc(NC(=O)/C(Cc2nc3ccc([N+](=O)[O-])cc3[nH]c2=O)=N\NC(=O)C[n+]2ccccc2)c(C)c1: > 100 µM
Cc1ccc(-n2nc(C(C)(C)C)cc2NC(=O)NCc2cc(F)ccc2Oc2ccc3c(cnn3CCO)c2)cc1: > 93.1 µM
O=C(/C=C/c1cccc(O)c1)c1cccc(-n2cc(-c3ccc4ccccc4c3)[nH]c2=O)c1: 2.89 µM
O=c1[nH]c2cc([N+](=O)[O-])ccc2nc1/C(=N\Nc1ccccc1)C(O)c1ccc2c(c1)OCO2 (stereo not drawn): > 100 µM
C[C@H]1[C@H](C)CC[C@]2(C(=O)OC3OC(CO)C(O)C(O)C3O)CC[C@]3(C)C(=CC[C@@H]4[C@@]5(C)C[C@H]6OC(=O)c7cc(O)c(O)c(O)c7-c7c(cc(O)c(O)c7O)C(=O)O[C@@H]6C(CO)(CO)[C@@H]5CC[C@]43C)[C@H]12 (stereo partly drawn): > 100 µM
COC(=O)C1C(=O)N(CCc2c[nH]c3ccccc23)C[C@@H]2CCC(=O)C[C@H]12 (stereo partly drawn): > 100 µM

Req: For the molecule shown here, Nc1cc(-c2ccc(Cl)cc2)nn1-c1nnc(/C=C/c2ccco2)c(=O)[nH]1 , give the reported TGI.
Resp: 22.4 µM

###

- System: SK-MEL-2 melanoma
- PROCEDURE DETAILS: NCI tumour cell line growth inhibition, 48 h
// bucketize TGI: group 1: < 10 µM; group 2: ≥ 10 µM and < 30 µM; group 3: ≥ 30 µM

Answered examples (3):
CC(C)[O-].CC(C)[O-].CN(CCN(C)Cc1cc(F)cc(F)c1[O-])Cc1cc(F)cc(F)c1[O-].[Ti+4]: group 1
Nc1cc(-c2ccc(Cl)cc2)nn1-c1nnc(/C=C/c2ccco2)c(=O)[nH]1: group 3
CSc1ccc(N(C)c2nc(C)nc3c2CCC3)cc1: group 3

Req: Entry C[C@H]1[C@H](C)CC[C@]2(C(=O)OC3OC(CO)C(O)C(O)C3O)CC[C@]3(C)C(=CC[C@@H]4[C@@]5(C)C[C@H]6OC(=O)c7cc(O)c(O)c(O)c7-c7c(cc(O)c(O)c7O)C(=O)O[C@@H]6C(CO)(CO)[C@@H]5CC[C@]43C)[C@H]12 (stereo partly drawn) belongs to which category?
Resp: group 3

Req: Now the same for CCNc1ncnc2sc(SCc3ccccc3)nc12
Resp: group 3

Req: Now the same for C(=C\c1ccccc1)/COc1ccccc1C(N1CCOCC1)n1nc2ccccc2n1 (stereo not drawn)
Resp: group 2

Req: Now the same for CCOC(=O)C(NC(=O)Nc1ccc(Cl)cc1)(OC)C(F)(F)F (stereo not drawn)
Resp: group 3

Req: Now the same for Cc1c(C(=O)/C=C/c2ccccc2[N+](=O)[O-])[n+](=O)c2ccccc2n1[O-]
Resp: group 2

Req: Now the same for CCNCCNc1cc(-c2ccc(C#N)cc2)c(C#N)c2nc3ccccc3n12
Resp: group 2

Req: Now the same for COc1cccc2c1OCC1Cc3ccccc3OC21 (stereo not drawn)
Resp: group 3

Req: Now the same for COc1ccc(Oc2cnn(C(Br)(Br)C(C)=O)c(=O)c2Br)cc1
Resp: group 3

###

- Test system: LOX IMVI melanoma
- PROCEDURE DETAILS: NCI tumour cell line growth inhibition, 48 h
We begin with a simple list: items and their reported TGI.

Here's what some known entries look like.
Cn1c(=O)nc2n(-c3ccc(Cl)c(C(F)(F)F)c3)c3ccccc3nc-2c1=O: > 100 µM
C=C1C(=O)C23C(O)C1CC[C@H]2C12CCCC(C)(COC(C)=O)[C@H]1[C@H](O)[C@]3(O)OC2 (some centres undefined): 3.17 µM
COc1ccc(C2Oc3c(c(O)cc4c3[C@H](c3ccc(O)cc3O)[C@H](O)C(c3ccc(O)c(O)c3)O4)C[C@@H]2O)cc1O (some centres undefined): > 100 µM
O=C(/C=C/c1cccc(O)c1)c1cccc(-n2cc(-c3ccc4ccccc4c3)[nH]c2=O)c1: 2.08 µM
OCc1ccc(N2CCOCC2)cc1Cl: > 100 µM
Cc1cc(C)c(/C=C(\C(=C/c2c(C)cc(C)cc2C)[N+](=O)[O-])[N+](=O)[O-])c(C)c1: > 100 µM
COc1ccc(NC(C)c2ccncc2)cc1 (centres undefined): > 100 µM
COc1ccc(N2C(=O)C3c4[nH]c5ccccc5c4C4CCCCCCCCCC4C3C2=O)cc1 (centres undefined): > 10 µM

Okay, next one:
Req: # value lookup — system LOX IMVI melanoma, readout TGI, item CSc1nc2c(ncn2C2OC(CO)C(O)C(O)C2O)c(=O)[nH]1 (centres undefined)
Resp: > 100 µM

###

We begin with a simple list: items and their reported GI50.
- Test system: 786-0 renal
- PROCEDURE DETAILS: NCI tumour cell line growth inhibition, 48 h

Here's what some known entries look like.
COc1cccc(COc2cc(-n3cnc4ccccc43)sc2C(N)=O)c1: > 25 µM
c1ccc(-c2nc(N3CCCNCC3)c3nc(-c4ccccc4)oc3n2)cc1: 1.73 µM
CCCCCCCCCCCCCC[n+]1cccc(C(N)=O)c1: 1.32 µM

Req: For the compound shown here, O=C1/C(=C/c2ccc([N+](=O)[O-])cc2)COc2ccc(O)cc21 , give the reported GI50.
Resp: 3.05 µM
